# SYSTEM_UNDER_TEST: T1, CD134 expressed on the cell surface of HT1080_OX40 cells (human, UniProt P43489 29-277); further: test concentration or dose not given here
# T1 sequence (looked up): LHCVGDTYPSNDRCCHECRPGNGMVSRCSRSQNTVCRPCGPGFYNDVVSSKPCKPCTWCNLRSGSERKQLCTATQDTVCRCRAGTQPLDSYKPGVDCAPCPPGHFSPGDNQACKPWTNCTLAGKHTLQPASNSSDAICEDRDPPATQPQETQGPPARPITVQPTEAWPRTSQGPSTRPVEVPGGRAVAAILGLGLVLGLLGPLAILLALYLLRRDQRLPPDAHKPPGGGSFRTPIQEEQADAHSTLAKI
# PROCEDURE_TEXT: cell-based or functional assay
MEASURED_PARAMETER: Functional assay IL-8 (abs. corr.)
Field: numeric (abs. corr.). Do not append units.

P018.S.12.A.E06 (antibody, V domains shown, V regions on human Ig constant parts; also called AB134_77) VH: QSVEESGGRLVTPGTPLTLTCTVSGFSLSNYHMCWVRRAPGKGLEWIGSITTADETTHYANWAKGRFTISETSTTVDLRITSPTTEDTAIYFCGRTIRYDDYAVDLWGPGTLVTVSS VL: DLVMTQTPASMSEPVGGTVTIKCQASESVGGYLAWYQQKAGQRPKLLIYAAGNLASGVPSRFKGSGSGTEYTLTISDLESADAATYYCQCTYFDSSYVGFGGGTEVVVR    0.054
P018.S.12.A.G05 (antibody, V domains shown, V regions on human Ig constant parts; also called AB134_87) VH: QSVEESGGRLVTPGTPLTLTCTVSGFSLSTYGMSWVRQAPGKGLEWIGIIDGGDSPYYASWAEGRFTISKTSTTVDLKITSPTTEDTATYFCARIAGSNHGPFDLWGPGTLVTVSS VL: DVVMTQTPASVSEPVGGTVTINCQASEFISNYLAWYQQKPGQPPKLLIYGASTLASGVPSRFKGSGSGTDFTLTISDLESADAATYYCQCTAYGSSYVGFGGGTEVVVK    0.13

Item P018.S.04.A.D06 (antibody, V domains shown, V regions on human Ig constant parts; also called AB134_9) VH: QSLEESGGDLVKPGASLTLTCTASGFSFSSSYYMCWVRQAPGKGLEWIACIYTGDGASYYASWAKGRFTISKPSSTTVTLQVTSLTAADTATYFCGRGEYDNDWGFGLWGPGTLVTVSS VL: AYDMTQTPASVEVPVGGTVTINCQASEDISSYLSWYQQKPGQPPELLIYYASNLASGVSSRFKGSRSGTEFTLTISDLESADAATYYCQCSNYGGSWTFGGGTEVVVK has what recorded Functional assay IL-8? 1.01

Bench note: what Functional assay IL-8 did P018.S.12.A.F05 (antibody, V domains shown, V regions on human Ig constant parts; also called AB134_81) VH: QSLEESGGGLVQPGGSLKLSCKASGIDFSSYGVSWVRQAPGKGLEWIAYTYPDYGSTDYASWVNGRFTISLDNAQNTVFLQMTSLTAADTATYFCASSSNGWGGGFYFDLWGPGTLVTVSS VL: ALVMTQTPSPVSAAVGGTVTINCQASEDIYSNLAWFQQKPGQPPKLLIYGASTLASGVPSRFSGSGSGTEFTLTINDLKSDDAATYYCLGVYTYITTDPNAFGGGTEVVVK show? 0.341

Give its Functional assay IL-8 value. Item: P018.S.12.A.C04 (antibody, V domains shown, V regions on human Ig constant parts; also called AB134_64) VH: QSLEESGGRLVTPGGSLTLTCTVSGIDLSRWTMSWVRQAPGKGLEWIGLIYASDDTVYASWAKGRFTISKTSTTVDLKITSPTTEDTATYFCVRVYGSTSGYYDLWGQGTLVTVSS VL: DVVMTQTPASVSEPVGGTVTIKCQASQSISNWLAWYQQKPGQPPKLLIYYASTLASGVPSRFKGSGSGTQFTLTISDLESADAATYYCQNFGDGNSIGHAFGGGTEVVVK 0.215
